orexin-1 receptor (OX1R) data, read-out Ki

COMPOUND | MEASUREMENT_TARGET | Ki / µM
Cc1ccc(-n2nccn2)c(C(=O)N2C[C@H](COc3nccc4ccccc34)OC[C@H]2C)c1 [A-9] | orexin-1 receptor (OX1R) | 0.023
Cc1ccc(-n2nccn2)c(C(=O)N2C[C@H](COc3ccc(Br)cn3)OC[C@H]2C)c1 [A-10] | orexin-1 receptor (OX1R) | 0.021
Cc1ccc(-n2nccn2)c(C(=O)N2C[C@H](COc3ncccc3C)OC[C@H]2C)c1 [A-13] | orexin-1 receptor (OX1R) | 0.72
Cc1ccc(-n2nccn2)c(C(=O)N2C[C@H](COc3ccnc4ccccc34)OC[C@H]2C)c1 [A-12] | orexin-1 receptor (OX1R) | 0.017
